Tested on: human PHD2 (Homo sapiens (Human))
Assay overview: Test 2: human PHD2 inhibitory activity, fluorescence polarization assay of HIF-1α peptide proline hydroxylation
Format: biochemical
Assay conditions: test compound's concentration 1 μM; Test 2, fluorescence polarization assay; read-out: Percent inhibition (% at 1 μM)
We use 80% as the dividing line for inhibition at 1 µM: on or above the line is label 1, below is label 0.

Hello, I need to know if Cc1cccc(COc2ccc(CN3CCC(O)=C(C(=O)NCC(=O)O)C3=O)cc2)n1 has measured inhibition at 1 µM not below 80%. Thanks!
label 1

How about O=C(O)CNC(=O)C1=C(O)CCN(C[C@H]2C[C@H](Oc3ccc(C(F)(F)F)cc3)C2)C1=O ?
label 1

How about Cn1nc(-c2ccccc2)cc1CN1C(=O)C(C(=O)NCC(=O)O)=C(O)CC1(C)C ?
label 0

How about O=C(O)CNC(=O)C1=C(O)CCN(Cc2ccc(-c3cnoc3)cc2)C1=O ?
label 1

How about O=C(O)CNC(=O)C1=C(O)C2(CC2)CN(Cc2ccc(-c3ccccc3)cc2)C1=O ?
label 1

How about COc1ccc(-c2ccc(CN3CC4(CCC4)C(O)=C(C(=O)NCC(=O)O)C3=O)cc2)cn1 ?
label 1

How about O=C(O)CNC(=O)C1=C(O)CCN(Cc2ccc(Oc3ccc(Cl)cn3)cc2)C1=O ?
label 1

How about O=C(O)CNC(=O)C1=C(O)CCN(CC2CC(c3ccc(F)cc3)C2)C1=O (stereo not shown) ?
label 1

How about O=C(O)CNC(=O)C1=C(O)CCN(Cc2cnc(Oc3ccc(Cl)cc3)cn2)C1=O ?
label 1

How about CC1(C)CC(O)=C(C(=O)NCC(=O)O)C(=O)N1Cc1ccc(OC(F)(F)F)c(Cl)c1 ?
label 0

How about CC(C)(C)c1ccc(-c2ccc(CN3C(=O)C(C(=O)NCC(=O)O)=C(O)CC34CCOCC4)cc2)cc1 ?
label 1

How about Cc1ccc(CN2C(=O)C(C(=O)NCC(=O)O)=C(O)CC2(C)C)cc1Cl ?
label 0

How about O=C(O)CNC(=O)C1=C(O)CCN(Cc2cnc(-c3ccccc3)s2)C1=O ?
label 1

How about O=C(O)CNC(=O)C1=C(O)CCN(Cc2ccc(OCC(F)(F)F)c(F)c2)C1=O ?
label 1

How about O=C(O)CNC(=O)C1=C(O)CCN(C[C@H]2C[C@@H]2c2ccc(F)cc2)C1=O ?
label 1

How about O=C(O)CNC(=O)C1=C(O)CCN(CC2CCN(C(=O)OCc3ccccc3)CC2)C1=O ?
label 1

How about O=C(O)CNC(=O)C1=C(O)CCN(Cc2ccc3ccccc3c2)C1=O ?
label 1

How about CSc1ccc(CN2CCC(O)=C(C(=O)NCC(=O)O)C2=O)cc1 ?
label 1

How about O=C(O)CNC(=O)C1=C(O)C[C@H](c2ccccc2)N(Cc2ccc(OCC3CC3)cc2)C1=O ?
label 0

How about O=C(O)CNC(=O)C1=C(O)CCN(Cc2ccc(Oc3ccc(C(F)(F)F)cc3)cn2)C1=O ?
label 1

How about CC1(C)CN(Cc2ccc(OC3CC3)cc2)C(=O)C(C(=O)NCC(=O)O)=C1O ?
label 0

How about Cc1ccc(-c2ccc(CN3CCC(O)=C(C(=O)NCC(=O)O)C3=O)cc2)s1 ?
label 1

How about COc1ccc(-c2ccc(CN3CCC(O)=C(C(=O)NCC(=O)O)C3=O)cc2)cn1 ?
label 1

How about CC(c1ccc(C(F)(F)F)cc1)N1CCC(O)=C(C(=O)NCC(=O)O)C1=O (stereo not shown) ?
label 0

How about COc1cc(CN2C(=O)C(C(=O)NCC(=O)O)=C(O)CC2(C)C)ccc1C(F)(F)F ?
label 0

How about O=C(O)CNC(=O)C1=C(O)CCN(Cc2ccc(C(F)(F)C(F)(F)F)cc2)C1=O ?
label 1

How about CN(Cc1ccc(F)cc1)C(=O)CN1C(=O)C(C(=O)NCC(=O)O)=C(O)CC1(C)C ?
label 0

How about NC(=O)[C@H]1CC(O)=C(C(=O)NCC(=O)O)C(=O)N1Cc1ccc(OCC2CC2)cc1 ?
label 0

How about O=C(O)CNC(=O)C1=C(O)CCN(Cc2ccc(C(F)(F)F)c(F)c2)C1=O ?
label 1

How about O=C(O)CNC(=O)C1=C(O)CCN(Cc2ccc(OC3CCC3)cc2)C1=O ?
label 1

How about Cc1nc(C)c(-c2ccc(CN3CCC(O)=C(C(=O)NCC(=O)O)C3=O)cc2)s1 ?
label 1

How about O=C(O)CNC(=O)C1=C(O)CCN(Cc2ccc(-c3cccc(Cl)c3)cc2)C1=O ?
label 1

====

Tested on: human PHD2 (Homo sapiens (Human), UniProt Q9GZT9)
Sequence (Q9GZT9 whole entry): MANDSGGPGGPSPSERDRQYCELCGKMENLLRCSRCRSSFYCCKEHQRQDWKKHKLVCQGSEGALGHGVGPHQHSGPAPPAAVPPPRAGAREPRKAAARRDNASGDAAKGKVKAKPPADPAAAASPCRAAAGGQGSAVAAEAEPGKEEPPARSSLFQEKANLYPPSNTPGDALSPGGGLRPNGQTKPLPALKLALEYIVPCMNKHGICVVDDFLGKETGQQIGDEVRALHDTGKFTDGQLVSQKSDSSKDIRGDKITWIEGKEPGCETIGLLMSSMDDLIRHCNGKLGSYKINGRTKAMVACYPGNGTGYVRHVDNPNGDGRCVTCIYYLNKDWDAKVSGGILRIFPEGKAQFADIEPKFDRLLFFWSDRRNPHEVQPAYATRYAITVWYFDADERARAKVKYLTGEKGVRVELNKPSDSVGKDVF
Assay overview: Test 1: human PHD2 inhibitory activity, [14C]-2-oxoglutarate to [14C]-succinic acid radiometric assay with HIF-1α peptide
Assay type: biochemical
Assay conditions: test compound's concentration 1 μM; Test 1, [14C]-2-oxoglutarate radiometric assay; read-out: Percent inhibition (% at 1 μM)
Method: (1) Expression and Preparation of Human PHD2 Human PHD2 was expressed in insect cells (HighFive cells). A registered sequence of human PHD2 (NM_022051) was introduced into the pFastBacl vector (Invitrogen), and the sequence was verified. The vector was introduced into Sf9 insect cells (Invitrogen) to acquire human PHD2 baculovirus. […] The activity of human PHD2 enzyme was measured with a substrate which is a 19-residue partial peptide based on the sequence of HIF-1α. […]
We use 80% as the dividing line for inhibition at 1 µM: on or above the line is true (1), below is false (0).

Hello, I need to know if O=C(O)CNC(=O)C1=C(O)CCN(Cc2ccc(C(F)(F)F)c(C3CC3)c2)C1=O [Ex. 1-190] has measured inhibition at 1 µM not below 80%. Thanks!
true (1)

How about O=C(O)CNC(=O)C1=C(O)CCN(Cc2ccc(-c3ccc(F)cc3)c(F)c2)C1=O [Ex. 2-29] ?
true (1)

How about Cc1ccccc1Oc1ccc(CN2CCC(O)=C(C(=O)NCC(=O)O)C2=O)cn1 [Ex. 1-275] ?
true (1)

How about Cn1nc(-c2ccccc2)cc1CN1C(=O)C(C(=O)NCC(=O)O)=C(O)CC1(C)C [Ex. 1-299] ?
false (0)

How about Cc1ccccc1Oc1ccc(CN2CCC(O)=C(C(=O)NCC(=O)O)C2=O)cc1 [Ex. 1-283] ?
true (1)

How about O=C(O)CNC(=O)C1=C(O)CCN(Cc2ccc(C3CCC3)c(C(F)(F)F)c2)C1=O [Ex. 1-243] ?
false (0)

How about Cc1ccc(Oc2ccc(CN3C(=O)C(C(=O)NCC(=O)O)=C(O)CC3(C)C)cn2)cc1 [Ex. 1-206] ?
true (1)

====

I'd be grateful if you could share measured inhibition at 1 µM for these entries.
Tested on: human PHD2 (Homo sapiens (Human), UniProt Q9GZT9)
Assay overview: Test 2: human PHD2 inhibitory activity, fluorescence polarization assay of HIF-1α peptide proline hydroxylation
Type: biochemical
Assay conditions: test compound's concentration 1 μM; Test 2, fluorescence polarization assay; read-out: Percent inhibition (% at 1 μM)
Hi! Could you send only the number? It should be in %, unit omitted.

Fill in: inhibition at 1 µM of O=C(O)CNC(=O)C1=C(O)CC2(CCCC2)N(Cc2ccc(-c3ccccc3)cc2)C1=O [Ex. 1-9] is ___
93

How about O=C(O)CNC(=O)C1=C(O)C[C@@H](c2ccccc2)N(Cc2ccc(OCC3CC3)cc2)C1=O [Ex. 6-11] ?
73

How about O=C(O)CNC(=O)C1=C(O)C2(CCCC2)N(Cc2ccc(-c3ccccc3)cc2)C1=O [Ex. 6-1] ?
91

How about O=C(O)CNC(=O)C1=C(O)CCN(Cc2cnc(OCCC3CC3)c(Cl)c2)C1=O [Ex. 1-420] ?
92

====

I'd be grateful if you could share measured inhibition at 1 µM for these entries.
Tested on: human PHD2 (Homo sapiens (Human), UniProt Q9GZT9)
Assay overview: Test 1: human PHD2 inhibitory activity, [14C]-2-oxoglutarate to [14C]-succinic acid radiometric assay with HIF-1α peptide
Type: biochemical
Assay conditions: test compound's concentration 1 μM; Test 1, [14C]-2-oxoglutarate radiometric assay; read-out: Percent inhibition (% at 1 μM)
Hi! Could you send only the number? It should be in %, unit omitted.

Find inhibition at 1 µM (human PHD2 (Homo sapiens (Human), UniProt Q9GZT9)) for the entry O=C(O)CNC(=O)C1=C(O)CC2(COC2)N(Cc2ccc(C(F)(F)F)cc2)C1=O [Ex. 1-124]
72

How about CC1(C)CC(O)=C(C(=O)NCC(=O)O)C(=O)N1Cc1ccc(C2CC2)cc1 [Ex. 1-203] ?
61

How about CC1(C)CC(O)=C(C(=O)NCC(=O)O)C(=O)N1Cc1coc(-c2ccccc2)n1 [Ex. 1-295] ?
63

How about Cc1cc(CN2C(=O)C(C(=O)NCC(=O)O)=C(O)CC2(C)C)ccc1Cl [Ex. 1-180] ?
54

How about O=C(O)CNC(=O)C1=C(O)CCN(Cc2ccc(F)cc2)C1=O [Ex. 1-139] ?
72

How about O=C(O)CNC(=O)C1=C(O)CC2(CCC2)N(Cc2ccc(C3CC3)cc2)C1=O [Ex. 1-236] ?
84

How about CC1CC(O)=C(C(=O)NCC(=O)O)C(=O)N1Cc1ccc(-c2ccccn2)cc1 (centres unmarked) [Ex. 1-77] ?
74

How about O=C(O)CNC(=O)C1=C(O)CCN(Cc2ccc(C(F)(F)F)cc2C(F)(F)F)C1=O [Ex. 1-54] ?
60

How about O=C(O)CNC(=O)C1=C(O)C2(CC2)CN(Cc2ccc(C(F)(F)F)cc2)C1=O [Ex. 1-147] ?
84

How about O=C(O)CNC(=O)C1=C(O)CC2(CCCC2)N(Cc2ccc(-c3ccccc3)cc2)C1=O [Ex. 1-9] ?
88

How about O=C(O)CNC(=O)C1=C(O)CCN(Cc2ccc(Oc3ccc(C4CC4)cc3)nc2)C1=O [Ex. 1-296] ?
100

How about O=C(O)CNC(=O)C1=C(O)C2(CC2)CN(Cc2ccc(OC(F)(F)F)cc2)C1=O [Ex. 1-208] ?
90

How about CC1(C)CC(O)=C(C(=O)NCC(=O)O)C(=O)N1Cc1nc(-c2ccccc2)cs1 [Ex. 1-294] ?
51

How about O=C(O)CNC(=O)C1=C(O)C2(CCC2)CN(Cc2ccc(C(F)(F)F)cc2)C1=O [Ex. 1-83] ?
54

How about O=C(O)CNC(=O)C1=C(O)CCN(Cc2ccc(Oc3cccc(OC(F)(F)F)c3)nc2)C1=O [Ex. 1-287] ?
94

How about O=C(O)CNC(=O)C1=C(O)CCN(Cc2ccc(C(F)(F)F)c(Cl)c2)C1=O [Ex. 1-128] ?
88

How about CC1(C)CC(O)=C(C(=O)NCC(=O)O)C(=O)N1Cc1ccc(OCC2CCC2)cc1 [Ex. 1-239] ?
74
